- assay_notes: Human HepG2 cell viability assay in 384 well format
- Format: toxicity, cell-based
- Set-up: dose 125 nL, time 70.5 hour; concentration not given beside the values
- measurement_parameters: HepG2 cells, read-out: Inhibition
Consider the following compounds; for each one, report its cytotoxicity at 70.5 h.
Answers are plain numbers, in %.

Below are worked cases with known answers.
compound=O[C@@H]1C[C@@](CNCc2ccc(Cl)cc2)(COc2cccnc2)C[C@@H]1O observed_result=-10.2
compound=CCN(CC)CCNC(=O)c1ccn(COc2cc(C)cc(C)c2)n1 observed_result=-3.13
compound=CCOc1cccc(CCNC(=O)Cc2ccccc2O)n1 observed_result=-14.9

// input: 2 compounds below; output: cytotoxicity at 70.5 h for each
1. CCc1nc(NCCCn2cccn2)c2c(n1)c(C)nn2C
2. COCC(=O)N1CCCC1c1cccc(C)c1C (configuration not stated)

A:
-1.69
4.58
